Test system: HT29 colon
Experiment: NCI-60 one-dose screen, 48 h
Conditions: 10 µM unless noted
Description: Growth inhibition of the HT29 human tumor cell line is measured as a screen for anti-cancer activity. Cells are grown in 96 well plates and exposed to the test compound for 48 hours. Compounds are tested at a single concentration, which is 10^-5 M for most compounds. The reported endpoint is percent growth (GI% or GIPRCNT), where numbers from 0 - 100% represent growth inhibition, and numbers from -100% - 0 represent cell death. For example, a value of 40 represents 60% growth inhibition. […]
The panel holds about 83,000 compounds, 20% with a hit somewhere; the sample as a whole holds those more often. Calls of active or inactive are those of the source. The calls were made as follows: active = growth percent below 10; inactive = the rest.
Entry note: the call must match one of active, inactive

Examples from the recorded data:
INSERT INTO assay_data (molecule, label) VALUES
  ('COc1ccc(C2CC(c3ccc(OC)cc3O)=NN2c2ccc(S(N)(=O)=O)cc2)cc1 (centres undefined)', 'inactive'),
  ('Nc1c(C(=O)Nc2cccc3ccccc23)sc2nc3c(cc12)CCCCC3', 'inactive'),
  ('COCCOCCOCc1n(Cc2ccc3ccccc3c2)c2ccccc2[n+]1Cc1ccc2ccccc2c1', 'active'),
  ('O=C(O)c1cc(N=Nc2ccc(-c3ccc(N=Nc4c(S(=O)(=O)O)cc5ccc(Nc6ccccc6)cc5c4O)cc3)cc2)ccc1O', 'inactive'),
  ('CCOc1ccc(C2N(c3cc(OC)c(OC)c(OC)c3)C(=O)C2(F)F)cc1 (centres undefined)', 'inactive'),
  ('CCOC(=O)c1c(C)nc2c(c1N)/C(=C/c1cccs1)C(=O)N2Cc1ccccc1', 'inactive');

q: Which outcome did this test record for the molecule `Cc1cc(C)cc(Nc2nccc(-c3c(-c4ccc(F)cc4)ncn3C3CCNCC3)n2)c1` ?
a: active

q: Which outcome did this test record for the molecule `CC(C)CSc1nc(Nc2ccccc2)c(C#N)c(-c2ccc(F)cc2)n1` ?
a: inactive

q: Which outcome did this test record for the molecule `CCC[S@](=O)c1ccc2nc(NC(=O)OC)[nH]c2c1` ?
a: inactive

Provenance of the data: PubChem BioAssay (NCI)
